Test system: PMN-superoxide
Assay: Inhibition of PMN superoxide secretion (ferricytochrome C reduction)
Format: cell-based
Settings: human PMN granulocytes primed with TNF-α, stimulated with fMLP; read-out: The median inhibition concentration (IC50, nM) of PMN-superoxide
Protocol: The compounds of the present invention also show similar activities in the ability to inhibit PMN (polymorphonuclear) superoxide secretion which is also indicative of potentially useful anti-inflammatory drugs. […] Superoxide anion generation was measured as the superoxide dismutase inhibitable reduction of ferricytochrome C (Madhu, S.B. et al, Inflammation, 16, 241, (1992)). […] The optical densities in the cell-free supernatant was measured in a spectrophotometer. […]
Here, each record is paired with measured IC50 data.
// return numeric value only (unit: nM, not printed)

> print(dat)
                                   compound  experimental.endpoint  result.value
1  Cc1ccccc1C(=O)c1ccc(Nc2ccccc2N)cc1Cl [Ref. comp., reference compound]                   IC50             5

*Q* Please give the measured IC50 for this compound: Cc1ccccc1Nc1ccc(C(=O)c2sccc2Cl)c(Cl)c1
*A* 6.3
